molecular target: Histamine H3 receptor (Cavia porcellus, UniProt Q9JI35); experiment: Binding affinity towards histamine H3 receptor using [3H](R)-alpha-methylhistamine as radioligand in guinea pig cortical homogenates
Sequence (Q9JI35 whole entry): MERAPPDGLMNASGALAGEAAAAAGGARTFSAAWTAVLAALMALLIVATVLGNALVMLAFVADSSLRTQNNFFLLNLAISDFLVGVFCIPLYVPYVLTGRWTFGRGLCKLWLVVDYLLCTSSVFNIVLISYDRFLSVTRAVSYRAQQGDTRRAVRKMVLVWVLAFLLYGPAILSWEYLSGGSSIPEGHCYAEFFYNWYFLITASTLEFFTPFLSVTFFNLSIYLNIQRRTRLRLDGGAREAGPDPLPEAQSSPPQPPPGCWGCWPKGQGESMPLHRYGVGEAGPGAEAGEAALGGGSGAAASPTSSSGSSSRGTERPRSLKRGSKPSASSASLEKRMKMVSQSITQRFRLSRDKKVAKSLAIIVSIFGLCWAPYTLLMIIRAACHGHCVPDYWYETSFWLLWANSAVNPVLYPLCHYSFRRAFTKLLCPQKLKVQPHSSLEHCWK
Listing of recorded Ki by entry.
TEST READOUT: Ki (nM)

# COMPOUND, TESTED TARGET, TEST READOUT, READOUT UNIT, VALUE REPORTED
records = [
    ("O=S(=O)(NCCCCCCc1c[nH]cn1)c1ccc2ccccc2c1", "Histamine H3 receptor (Cavia porcellus, UniProt Q9JI35)", "Ki", "nM", 25.1),
    ("O=S(=O)(NCCCCCCCCCCc1c[nH]cn1)c1ccc2ccccc2c1", "Histamine H3 receptor (Cavia porcellus, UniProt Q9JI35)", "Ki", "nM", 138),
    ("C[C@@H](N)Cc1c[nH]cn1", "Histamine H3 receptor (Cavia porcellus, UniProt Q9JI35)", "Ki", "nM", 0.0851),
    ("NCCc1c[nH]cn1 [HISTAMINE]", "Histamine H3 receptor (Cavia porcellus, UniProt Q9JI35)", "Ki", "nM", 0.145),
    ("O=S(=O)(NCCCc1c[nH]cn1)c1ccc2ccccc2c1", "Histamine H3 receptor (Cavia porcellus, UniProt Q9JI35)", "Ki", "nM", 14.1),
    ("O=S(=O)(Cc1ccc2ccccc2c1)NCCc1c[nH]cn1", "Histamine H3 receptor (Cavia porcellus, UniProt Q9JI35)", "Ki", "nM", 490),
]

###

Listing of recorded pKi by entry.
molecular target: Histamine H3 receptor (Cavia porcellus, UniProt Q9JI35); test: Binding affinity towards histamine H3 receptor using [3H](R)-alpha-methylhistamine as radioligand in guinea pig cortical homogenates
pKi: −log10 of the molar value.
TEST READOUT: pKi

# CPD SMILES, TEST READOUT, VALUE REPORTED
rows = [
    ("O=S(=O)(NCCCCCCCc1c[nH]cn1)c1ccc2ccccc2c1", "pKi", 7.30),
    ("O=S(=O)(/C=C/c1ccccc1)NCCc1c[nH]cn1", "pKi", 6.94),
    ("C[C@H](Cc1c[nH]cn1)NS(=O)(=O)c1ccc2ccccc2c1", "pKi", 8.99),
    ("O=S(=O)(NCCCCCc1c[nH]cn1)c1ccc2ccccc2c1", "pKi", 7.83),
    ("O=S(=O)(CCC1CCCCC1)NCCc1c[nH]cn1", "pKi", 7.79),
    ("O=S(=O)(NCCCCc1c[nH]cn1)c1ccc2ccccc2c1", "pKi", 7.64),
]

###

target: Histamine H3 receptor (Cavia porcellus) (UniProt Q9JI35); assay: Inhibition of H3-receptor mediated neurogenic contractions in the isolated guinea pig ileum assay; format: functional, tissue-based
Sequence (Q9JI35 whole entry): as above
TEST READOUT: pKB

# CPD SMILES, VALUE REPORTED
records = [
    ("O=S(=O)(NCCCCCCCCc1c[nH]cn1)c1ccc2ccccc2c1", 6.62),
    ("O=S(=O)(Cc1ccc2ccccc2c1)NCCc1c[nH]cn1", "< 5"),
    ("O=S(=O)(NCCCCc1c[nH]cn1)c1ccc2ccccc2c1", 6.81),
    ("O=S(=O)(NCCCCCc1c[nH]cn1)c1ccc2ccccc2c1", 6.96),
    ("O=S(=O)(NCCCCCCc1c[nH]cn1)c1ccc2ccccc2c1", 7.11),
    ("O=S(=O)(NCCCc1c[nH]cn1)c1ccc2ccccc2c1", 5.93),
]

###

biological target: Histamine H3 receptor (Cavia porcellus); test: Binding affinity towards histamine H3 receptor using [3H](R)-alpha-methylhistamine as radioligand in guinea pig ileum LMMP homogenates; format: tissue-based

# CPD SMILES, READOUT UNIT, Ki
measured = [
    ("O=S(=O)(Cc1ccc2ccccc2c1)NCCc1c[nH]cn1", "µM", 1.15),
    ("NCCc1c[nH]cn1", "µM", 0.0105),
    ("C[C@@H](N)Cc1c[nH]cn1", "µM", 0.000151),
    ("CS(=O)(=O)NCCc1c[nH]cn1", "µM", 0.186),
]

###

Listing of recorded pKB by entry.
biological target: Histamine H3 receptor (Cavia porcellus); experiment: Inhibition of H3-receptor mediated neurogenic contractions in the isolated guinea pig ileum assay; type: functional, tissue-based

# CPD SMILES, COMPARATOR, pKB
records = [
    ("O=S(=O)(/C=C/c1ccccc1)NCCc1c[nH]cn1", "<", 5.5),
    ("O=S(=O)(CCC1CCCCC1)NCCc1c[nH]cn1", "=", 5.87),
    ("O=S(=O)(NCCCCCCCCCCc1c[nH]cn1)c1ccc2ccccc2c1", "=", 5.79),
    ("O=S(=O)(Cc1ccccc1)NCCc1c[nH]cn1", "<", 5),
    ("O=S(=O)(NCCCCCCCc1c[nH]cn1)c1ccc2ccccc2c1", "=", 6.88),
    ("O=S(=O)(NCCc1c[nH]cn1)c1ccc2ccccc2c1", "=", 6.7),
]

src = ChEMBL document CHEMBL1132531
